biological target: COUP transcription factor 2 (Homo sapiens); test: COUP-TFII reporter suppression in human cells – cell-based, luciferase reporter, HEK293T, luminescence, primary screen (AID 686940); details: HEK293T NGFI-A luciferase reporter, at 8.6 µM;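 also: cells cotransfected with COUP-TFII expression vector driving the NGFI-A reporter; 0% = median of COUP-TF2 test wells and 100% = reporter-only cells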
Out of some 370,000 compounds screened, about 2,600 (0.7%) were called active.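 The calls were made as follows: active = inhibition above a per-plate cutoff, mean inhibition of test wells between control levels plus 3 SD (cut at about 38% in these data); inactive = the rest.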 The full list was thinned out, with actives kept by preference.
Reply using exactly one outcome from yes for active, no for inactive

[ask] For `O=C(CSc1nc2ccccc2s1)N=Nc1c(O)[nH]c2ccccc12` , what call appears in the results of this test?
[reply] no

* * *

target: COUP transcription factor 2 (Homo sapiens) (UniProt P24468); test: COUP-TFII reporter suppression in human cells – cell-based, luciferase reporter, HEK293T, luminescence, primary screen (AID 686940); settings: HEK293T NGFI-A luciferase reporter, at 8.6 µM, active compounds read high;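 also: cells cotransfected with COUP-TFII expression vector driving the NGFI-A reporter; 0% = median of COUP-TF2 test wells and 100% = reporter-only cells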
Sequence (P24468 whole entry, looked up): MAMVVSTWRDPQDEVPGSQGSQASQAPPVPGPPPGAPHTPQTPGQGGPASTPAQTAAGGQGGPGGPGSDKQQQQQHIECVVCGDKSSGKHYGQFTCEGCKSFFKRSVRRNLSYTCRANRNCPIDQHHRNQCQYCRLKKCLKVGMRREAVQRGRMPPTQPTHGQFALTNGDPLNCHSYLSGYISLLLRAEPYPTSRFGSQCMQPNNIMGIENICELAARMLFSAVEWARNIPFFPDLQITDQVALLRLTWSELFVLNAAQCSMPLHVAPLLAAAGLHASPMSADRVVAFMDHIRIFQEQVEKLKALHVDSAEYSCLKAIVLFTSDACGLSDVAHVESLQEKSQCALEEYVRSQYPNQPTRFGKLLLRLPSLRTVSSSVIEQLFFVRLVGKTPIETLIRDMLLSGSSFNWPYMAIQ
Out of some 370,000 compounds screened, about 2,600 (0.7%) were called active. The sample holds actives, similar compounds and a random draw of the others, so the mix is not that of the screen.
MEASUREMENT TYPE: inhibition (%)
Give the quantity in %, number only.

# COMPOUND, inhibition (%)
measured = [
    ("COc1ccc(C(=O)NC2CC(C)(C)Cc3c2cnn3-c2ccccc2)c(OC)c1 (stereo not given)", -0.91),
]

[ask] Answer with reported inhibition of `Cc1cc(C(=O)NNC(=O)CCC2CCCCC2)c(C)o1`
[reply] 3.17

[ask] Answer with reported inhibition of Cc1ccccc1CN1CCCCC(NC(=O)Nc2ccccc2F)C1=O (stereo not given)
[reply] 17.2

[ask] Answer with reported inhibition of COC(=O)c1ccc(C(=O)NC2CC(C)(C)Cc3c2cnn3-c2ccc(F)cc2)nc1 (stereo not given)
[reply] -4.63

[ask] Answer with reported inhibition of Cn1nccc1C(=O)NC1CCCc2c1cnn2-c1ccc(F)cc1F (stereo not given)
[reply] 60.9

[ask] Answer with reported inhibition of `CSc1ccc(C=Nn2c(-c3ccc(F)cc3)n[nH]c2=S)cc1`
[reply] -7.74

[ask] Answer with reported inhibition of `O=C(CN1CCC(NC(=O)NCc2ccccc2)CC1)Nc1ccc2c(c1)OCCO2`
[reply] -8.81

[ask] Answer with reported inhibition of COCc1ccc(C(=O)NC2CC(C)(C)Cc3c2cnn3-c2ccc(C)cc2)o1 (stereo not given)
[reply] -7.12

[ask] Answer with reported inhibition of Cc1cc(C(=O)NC2CCCc3c2cnn3-c2cccc(C)c2C)c(C)o1 (stereo not given)
[reply] 44.6

[ask] Answer with reported inhibition of `COc1ccc(N2CCN(CCNS(=O)(=O)c3ccc([N+](=O)[O-])cc3)CC2)cc1`
[reply] 15.2

* * *

molecular target: COUP transcription factor 2 (Homo sapiens); experiment: COUP-TFII reporter suppression in human cells – cell-based, luciferase reporter, HEK293T, luminescence, primary screen (AID 686940); details: HEK293T NGFI-A luciferase reporter, at 8.6 µM;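 also: cells cotransfected with COUP-TFII expression vector driving the NGFI-A reporter; 0% = median of COUP-TF2 test wells and 100% = reporter-only cells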
About 2,600 (0.7%) of roughly 370,000 compounds were called active.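 How the source made its calls: active means inhibition above a per-plate cutoff, mean inhibition of test wells between control levels plus 3 SD (cut at about 38% in these data); inactive means the rest.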 This excerpt belongs to a sample that is enriched for actives.
Reply using exactly one outcome from class 1 for active, class 0 for inactive

Examples from the recorded data:
# RECORD SMILES, TARGET ENTITY, CAT
rows = [
    ("CC(C)Nc1ncnc2c1ncn2[C@H]1CN(Cc2ccncc2)C[C@@H](CO)O1", "COUP transcription factor 2 (Homo sapiens)", "class 0"),
    ("CC[C@@H](CCC(=O)N(c1ccccc1)c1ccccc1)C1CC1", "COUP transcription factor 2 (Homo sapiens)", "class 0"),
    ("OCCN1CCN(c2ncnc3c2ncn3[C@H]2CN(Cc3ccco3)C[C@@H](CO)O2)CC1", "COUP transcription factor 2 (Homo sapiens)", "class 0"),
]

[ask] For `OC[C@@H]1CN(C2CCCC2)C[C@H](n2cnc3c(NC4CCC4)ncnc32)O1` , what call appears in the results of this test?
[reply] class 0

[ask] For `OC[C@@H]1CN(Cc2ccc(-c3ccccc3)cc2)C[C@H](n2cnc3c(NC4CCCC4)ncnc32)O1` , what call appears in the results of this test?
[reply] class 1

Reference source: PubChem BioAssay AID686940
